The measured values listed here are drawn from ChEMBL document CHEMBL4765396.

Assay Info: Inhibition of recombinant HIV-1 reverse transcriptase p66/p51 incubated for 40 mins by picogreen dye based fluorescence assay
Set-up: species or system Human immunodeficiency virus 1
Property: pIC50
Kindly note that pIC50 refers to -log10 of the concentration in mol/L and answer with the value alone.

Recorded results for 8 molecules are shown here.
Molecule | pIC50
COc1cc(-c2ccc(C#N)cc2)ccc1[C@@H](O)c1ccnc(Nc2ccc(C#N)cc2)n1 | 6.97
COc1cc(-c2ccc(C#N)cc2)ccc1C(O)c1ccnc(Nc2ccc(C#N)cc2)n1 (racemic) | 7.67
N#Cc1ccc(Nc2nccc([C@H](O)c3ccc(-c4ccc(C#N)cc4)cc3C(F)(F)F)n2)cc1 | 6.89
N#Cc1ccc(Nc2nccc([C@@H](O)c3c(F)cc(-c4ccc(C#N)cc4)cc3F)n2)cc1 | 7.77
Cc1cc(-c2ccc(C#N)cc2)ccc1C(O)c1ccnc(Nc2ccc(C#N)cc2)n1 (racemic) | 8.09
Cc1ccnc2c1NC(=O)c1cccnc1N2C1CC1 | 6.08
Cc1cc(-c2ccc(C#N)cc2)ccc1[C@@H](O)c1ccnc(Nc2ccc(C#N)cc2)n1 | 7.58
Cc1cc(-c2ccc(C#N)cc2)cc(C)c1C(O)c1ccnc(Nc2ccc(C#N)cc2)n1 (racemic) | 7.69

Note: attention shifts to another entry.
Bench note: what pIC50 did N#Cc1ccc(Nc2nccc(C(O)c3ccc(-c4ccc(C#N)cc4)cc3F)n2)cc1 (racemic) show?
7.94

====

Assay Info: Cytotoxicity against human MT4 cells assessed as reduction in cell viability incubated for 5 days by MTT assay
Format: cell-based
Cond: time 5 day
Reported CC50 at 120 h values follow for various compounds
Report the figure in µM without appending any unit label.

Compound | Property | Unit Name | Readout Value
N#Cc1ccc(Nc2nccc([C@@H](O)c3ccc(-c4ccc(C#N)cc4)cc3Cl)n2)cc1 | CC50 at 120 h | µM | 4.25
Cc1cc(-c2ccc(C#N)cc2)cc(C)c1C(O)c1ccnc(Nc2ccc(C#N)cc2)n1 (racemic) | CC50 at 120 h | µM | 6.05
N#Cc1ccc(Nc2nccc([C@H](O)c3ccc(-c4ccc(C#N)cc4)cc3F)n2)cc1 | CC50 at 120 h | µM | 30
N#Cc1ccc(Nc2nccc([C@H](O)c3ccc(-c4ccc(C#N)cc4)cc3C(F)(F)F)n2)cc1 | CC50 at 120 h | µM | 24.1
COc1cc(-c2ccc(C#N)cc2)ccc1C(O)c1ccnc(Nc2ccc(C#N)cc2)n1 (racemic) | CC50 at 120 h | µM | 13.2

Value lookup for CC50 at 120 h; key = Cc1cc(-c2ccc(C#N)cc2)ccc1[C@@H](O)c1ccnc(Nc2ccc(C#N)cc2)n1
35.6

Next up: Cc1cc(-c2ccc(C#N)cc2)cc(C)c1[C@@H](O)c1ccnc(Nc2ccc(C#N)cc2)n1
15

====

Measured selectivity ratio values are reported for all entries that follow.
Assay Info: Selectivity index, ratio of CC50 for human MT4 cells to EC50 for antiviral activity against HIV IIIB
Type: toxicity
Cond: read-out: Ratio CC50/EC50

Compound | selectivity ratio
COc1cc(-c2ccc(C#N)cc2)ccc1C(O)c1ccnc(Nc2ccc(C#N)cc2)n1 (racemic) | 5730
COc1cc(-c2ccc(C#N)cc2)ccc1[C@@H](O)c1ccnc(Nc2ccc(C#N)cc2)n1 | 2430
N#Cc1ccc(Nc2nccc([C@@H](O)c3ccc(-c4ccc(C#N)cc4)cc3Cl)n2)cc1 | 2970
Cc1cc(-c2ccc(C#N)cc2)cc(C)c1C(O)c1ccnc(Nc2ccc(C#N)cc2)n1 (racemic) | 1370
N#Cc1ccc(Nc2nccc([C@H](O)c3ccc(-c4ccc(C#N)cc4)cc3C(F)(F)F)n2)cc1 | 332
N#Cc1ccc(Nc2nccc([C@H](O)c3c(F)cc(-c4ccc(C#N)cc4)cc3F)n2)cc1 | 4480
N#Cc1ccc(Nc2nccc([C@H](O)c3ccc(-c4ccc(C#N)cc4)cc3Cl)n2)cc1 | 1340
Cc1cc(-c2ccc(C#N)cc2)ccc1C(O)c1ccnc(Nc2ccc(C#N)cc2)n1 (racemic) | 4250
Cc1cc(-c2ccc(C#N)cc2)ccc1[C@H](O)c1ccnc(Nc2ccc(C#N)cc2)n1 | 2470
N#Cc1ccc(Nc2nccc([C@@H](O)c3ccc(-c4ccc(C#N)cc4)cc3C(F)(F)F)n2)cc1 | 1520

What measured selectivity ratio goes with N#Cc1ccc(Nc2nccc([C@H](O)c3ccc(-c4ccc(C#N)cc4)cc3F)n2)cc1 ?
2220

Check N#Cc1ccc(Nc2nccc(C(O)c3ccc(-c4ccc(C#N)cc4)cc3Cl)n2)cc1 (racemic) too.
3150

Next compound up: N#Cc1ccc(Nc2nccc([C@@H](O)c3ccc(-c4ccc(C#N)cc4)cc3F)n2)cc1
3510

Another compound: Cc1cc(-c2ccc(C#N)cc2)ccc1[C@@H](O)c1ccnc(Nc2ccc(C#N)cc2)n1
2550
